Data origin: patent US12534534

Target: T1, CD40-mFc (human, UniProt P25942 21-193)
T1 construct: in-house produced; not shown: mFc part
T1 sequence (P25942 21-193): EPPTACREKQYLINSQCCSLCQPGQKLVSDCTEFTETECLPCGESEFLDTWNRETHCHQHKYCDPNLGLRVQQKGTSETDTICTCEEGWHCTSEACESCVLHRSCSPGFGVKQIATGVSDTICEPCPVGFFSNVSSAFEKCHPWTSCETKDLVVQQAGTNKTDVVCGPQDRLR
Experiment: SPR, antigen immobilised on CM5 chip
Procedure: Flow cell 1 was run as a blank immobilisation. The five FS20-22-49AA/FS30 mAb² were diluted to 1 μM and 1 nM in 1×HBS-EP buffer (GE Healthcare, product code BR100188), allowed to flow over the chip for 3 min and then allowed to dissociate for 4 minutes. A 30-second injection of 10 mM glycine pH 1.5 was used for regeneration. […] Binding levels were determined at the end of the association phase and compared. […]
assay metric: binding result

# binder, data value
measured = [
    ("G1AA/FS30-15 (antibody, human IgG1, kappa, L234A L235A, V domains shown, human IgG1 with LALA mutation in CH2; also called FS30-15 mAb) VH: EVQLLESGGGLVQPGGSLRLSCAASGFTFSGSGMSWVRQAPGKGLEWVSIIYSTNGDTDYADSVKGRFTISRDNSKNTLYLQMNSLRAEDTAVYYCARDFYDIANYYAFDYWGQGTLVTVSS VL: EIVLTQSPGTLSLSPGERATLSCRASQSVSSSYLAWYQQKPGQAPRLLIYGASSRATGIPDRFSGSGSGTDFTLTISRLEPEDFAVYYCQQAYYDPITFGQGTKVEIKR", "binds"),
    ("FS20-22-49AA/FS30-15 (bispecific antibody, human IgG1, kappa, L234A L235A, V domains shown, also called FS30-15 in mAb^2 format) VH: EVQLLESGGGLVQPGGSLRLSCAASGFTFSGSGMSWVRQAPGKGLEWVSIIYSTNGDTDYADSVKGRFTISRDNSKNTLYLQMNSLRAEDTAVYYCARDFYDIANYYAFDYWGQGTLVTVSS VL: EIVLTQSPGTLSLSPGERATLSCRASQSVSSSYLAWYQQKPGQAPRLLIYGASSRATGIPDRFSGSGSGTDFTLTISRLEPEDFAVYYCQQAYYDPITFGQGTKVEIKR", "binds"),
]
